# TESTED TARGET: shed MICA002 polypeptide (human) (UniProt Q29983)
# TEST DETAILS: capture ELISA (anti-hFc / antibody / shed antigen / biotin-6D4)
ATTRIBUTE MEASURED: EC50 (µg/mL)
Quick note: give the figure in µg/mL, leave out the unit.

// solved cases for EC50 follow
#40 (antibody, V domains shown) VH: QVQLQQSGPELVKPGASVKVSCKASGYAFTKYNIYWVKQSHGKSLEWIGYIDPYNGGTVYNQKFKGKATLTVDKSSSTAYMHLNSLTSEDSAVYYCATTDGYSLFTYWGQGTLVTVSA VL: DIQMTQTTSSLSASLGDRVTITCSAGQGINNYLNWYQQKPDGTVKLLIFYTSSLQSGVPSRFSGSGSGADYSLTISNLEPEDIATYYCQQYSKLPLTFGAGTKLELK :: 0.31
#36 (antibody, V domains shown) VH: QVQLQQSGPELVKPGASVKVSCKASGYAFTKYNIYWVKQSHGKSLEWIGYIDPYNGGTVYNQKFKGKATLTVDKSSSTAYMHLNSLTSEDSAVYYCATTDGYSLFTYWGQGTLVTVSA VL: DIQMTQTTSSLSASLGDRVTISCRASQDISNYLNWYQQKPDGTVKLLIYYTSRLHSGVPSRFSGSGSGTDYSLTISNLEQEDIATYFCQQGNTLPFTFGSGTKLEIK :: 0.32
#39 (antibody, V domains shown) VH: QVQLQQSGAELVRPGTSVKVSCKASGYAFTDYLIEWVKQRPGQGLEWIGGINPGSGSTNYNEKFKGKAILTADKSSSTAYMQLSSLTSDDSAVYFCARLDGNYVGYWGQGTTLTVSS VL: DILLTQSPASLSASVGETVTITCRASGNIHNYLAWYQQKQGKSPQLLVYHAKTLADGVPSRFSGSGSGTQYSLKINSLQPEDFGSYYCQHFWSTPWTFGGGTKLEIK :: 0.36

Turning now to a further binder:
Give the reported EC50 for this binder. 13A9 (antibody, human IgG1, kappa, V domains shown) VH: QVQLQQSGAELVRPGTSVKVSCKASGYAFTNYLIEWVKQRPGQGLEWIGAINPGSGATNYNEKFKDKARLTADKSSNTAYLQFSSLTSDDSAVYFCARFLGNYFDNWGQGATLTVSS VL: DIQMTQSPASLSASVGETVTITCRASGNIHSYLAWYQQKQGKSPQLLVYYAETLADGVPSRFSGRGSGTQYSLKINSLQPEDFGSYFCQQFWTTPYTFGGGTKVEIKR
0.14
